Hello, the source for this data is a melting point compilation (Tetko et al.), in case you need it.

metric-name: melting point

Use the examples below as a reference point.
INSERT INTO assay_data (molecule, metric_name, reported) VALUES
  ('O=C(CN=C=S)NC1CC1', 'melting point', '169 to 171 °C'),
  ('NS(=O)(=O)c1cc([N+](=O)[O-])cs1', 'melting point', '165 to 167 °C'),
  ('Cc1cc(C)c(S(=O)(=O)Cl)cc1C(=O)O', 'melting point', '189 to 191 °C'),
  ('NNc1c(Cl)cc(C(=O)O)cc1Cl', 'melting point', '207 to 209 °C'),
  ('Cc1ccc2[nH]nc(C(=O)O)c2c1', 'melting point', '273 to 275 °C');

Give recorded melting point. "CC(C)(C)NS(=O)(=O)c1cc(C(=O)O)ccc1Cl" 212 to 214 °C

Give recorded melting point. NC(=O)NC(CC(=O)O)c1ccccc1 (configuration not stated) 194 to 196 °C

###

Listed compounds paired with reported melting point

INSERT INTO assay_data (compound, reported) VALUES
  ('O=C(O)c1ccc(NC(=O)c2ccc(Br)cc2)cc1', '327 to 329 °C'),
  ('O=S(=O)(Nc1nc2ccccc2nc1Cl)c1ccc(F)cc1', '181 to 183 °C'),
  ('CC(C)C(=O)N(C)CC(=O)O', '109 to 111 °C'),
  ('CC(N)c1cc(F)ccc1N1CCC(O)CC1 (stereo not given)', '138 to 140 °C'),
  ('CN(CC(=O)O)S(=O)(=O)c1ccc(Br)cc1', '179 to 181 °C'),
  ('Cc1sc2nc(CN3CCOCC3)nc(Cl)c2c1C', '102 to 104 °C'),
  ('O=[N+]([O-])c1cc(Cc2ccccc2)ccc1O', '70 to 72 °C'),
  ('Cc1cc(C(C)(C)C)cc(C)c1CC#N', '84 to 86 °C'),
  ('O=C(O)c1cccnc1Oc1ccccc1Br', '166 to 168 °C'),
  ('Nc1ccc(S(=O)(=O)NCC(F)(F)F)cc1', '128 to 130 °C');

Give recorded melting point. "COc1ccc(S(N)(=O)=O)cc1Br" 139 to 141 °C

Give recorded melting point. "O=C(O)C=Cc1cccc(CO)c1" 129 to 131 °C

Give recorded melting point. "COc1ccc(NS(=O)(=O)c2ccc3oc(S)nc3c2)cc1" 175 to 177 °C

Give recorded melting point. "CC(C)OC(=O)c1ccnc(O)c1" 145 to 147 °C

Give recorded melting point. "CC(C)(Oc1ccc(F)cc1)C(=O)O" 68 to 70 °C

Give recorded melting point. "CC(=O)c1ccc(OC2CCCCC2)cc1" 74 to 76 °C

Give recorded melting point. "Cc1oc(-c2cnn(C)c2)nc1C(=O)O" 249 to 251 °C

###

Listed molecules paired with reported melting point

Use the examples below as a reference point.
INSERT INTO assay_data (molecule, reported) VALUES
  ('COc1cccc(C(C[N+](=O)[O-])c2c[nH]c3ccccc23)c1 (stereo unspecified)', '93 to 95 °C'),
  ('Cn1nc(Br)c(=O)n(C)c1=O', '95 to 97 °C'),
  ('CCOC=C1C(=O)N(c2cccc(C(F)(F)F)c2)C(=O)c2ccccc21', '194 to 196 °C'),
  ('Cc1sc2nc(CCl)nc(Cl)c2c1C', '142 to 144 °C'),
  ('CCCCN1C(=O)c2ccc(C(=O)O)cc2C1=O', '152 to 154 °C');

# next molecule below
Give recorded melting point. "CCc1[nH]nc(N)c1-c1ccc2c(c1)OCO2" 97 to 99 °C
